Source: PubChem BioAssay (NCI)

Tested on: BT-549 breast
Assay: NCI-60 one-dose screen, 48 h
Conditions: 10 µM unless noted
The panel holds about 83,000 compounds, 20% with a hit somewhere; the sample as a whole holds those more often. Activity calls are given as the source filed them. Rule for the calls: active = growth percent below 10; inactive = the rest.
Write down the outcome that applies. Available outcomes: active, inactive

Outcome? `Clc1cc(N2CC2)nc(N2CC2)n1`
inactive

Could you please tell me the result logged for `COc1ccc(/C=C\c2cc(OC)c(OC)c(OC)c2)cc1NS(=O)(=O)c1ccc(Cl)cc1` in this assay?
inactive

Could you please tell me the result logged for `COc1cc2c(cc1OCc1ccccc1)C(CC(C)C)=[N+](C)CC2` in this assay?
inactive

What was the test verdict on `COC(=O)[C@@H](C)C[C@H](Cc1ccccc1)NC(=O)c1csc([C@@H](C[C@H](C(C)C)N(C)C(=O)[C@@H](NC(=O)C23CC(NC(C)=O)(C2)C3)C2CC2)OC(C)=O)n1` ?
inactive

For `CC1(C)[C@H](O)[C@H](F)C[C@@]2(C)Oc3ccc(C(=O)Nc4ccc5c(c4)NC(=O)C54CCN(CCCCC#N)CC4)cc3C[C@H]12` , which call appears in the assay record?
inactive

Name the outcome recorded for `COC(=O)[C@H](C[C@H](Cc1ccccc1)NC(=O)c1csc([C@@H](C[C@H](C(C)C)N(C)C(=O)[C@@H](NC(=O)[C@H]2CCCCN2C)C(C)C)OC(C)=O)n1)NC(=O)OCc1ccccc1` in the assay.
active

What was the test verdict on Cc1ccc2c(C(C[N+](=O)[O-])c3cccs3)c(-c3ccccc3)[nH]c2c1 (configuration not stated) ?
inactive
